# Assay comment: cAMP Responsive Elements (CRE) small molecule antagonists, cell-based qHTS assay: qHTS cell viability counter screen (AID 2060913); also: nearly all actives have a fitted effect of over 40% in size
# Test parameters: CRE-bla HEK293T viability, CellTiter-Glo luminescence, 5 h; series mostly up to 92.4 µM
Results filed as inconclusive are left out. Active and inactive are the calls of the source. Calls follow the shape of the dose curve; as a rule, active = well fitted cell-killing curve with a large enough effect in the repeat runs; inconclusive = weak or mixed curves, or effect the other way; inactive = flat fitted curve, though single readings scatter.
Outcome (select one): yes (active), no (inactive)

Input line: Which result was noted for this compound in the test: CCCCCCCCCCCCCCCCCCn1cc[n+](C)c1
Output line: yes

Input line: Kindly provide the recorded test outcome for the following compound: O=[N+]([O-])c1ccccc1
Output line: no

Input line: Kindly provide the recorded test outcome for the following compound: OC(c1ccc(Cl)cc1)(c1cncnc1)c1ccccc1Cl (configuration not stated)
Output line: no

Input line: # lookup: test call for Cl/C=C/CCl
Output line: no

Input line: Name the outcome recorded for CCCC[P+](CC)(CCCC)CCCC (tested in a mixture with another compound) in the assay.
Output line: no

Input line: Query: recorded result category for C[N+](C)(C)CCCl in this test
Output line: no

Input line: Which outcome did this test record for the compound O=C(O)C(Cl)Cl ?
Output line: no

* * *

# Assay comment: cAMP Responsive Elements (CRE) small molecule antagonists, cell-based qHTS assay: qHTS cell viability counter screen (AID 2060913); also: nearly all actives have a fitted effect of over 40% in size
# Test parameters: CRE-bla HEK293T viability, CellTiter-Glo luminescence, 5 h; series mostly up to 92.4 µM
Records with an inconclusive call do not appear. Active and inactive are the calls of the source. Calls come from the whole dose curve; as a rule, active = well fitted cell-killing curve with a large enough effect in the repeat runs; inconclusive = weak or mixed curves, or effect the other way; inactive = flat fitted curve, though single readings scatter.
Readout kind: outcome

Answered examples (6):
Compound	Result
COC(=O)C(C)N(C(=O)c1ccco1)c1c(C)cccc1C (configuration not stated)	inactive
COP(N)(=O)SC (configuration not stated)	inactive
O=C(NC(=O)c1c(F)cccc1F)Nc1cc(Cl)c(F)c(Cl)c1F	inactive
COCC(=O)N(c1c(C)cccc1C)[C@H](C)C(=O)OC	inactive
CCCCOC(=O)CCC(=O)OCCCC	inactive
CC(C)Br	inactive

Proceed to the following item.
The compound listed as O=Cc1ccc(Cl)cc1Cl shows outcome equal to inactive

* * *

# Assay comment: cAMP Responsive Elements (CRE) small molecule antagonists, cell-based qHTS assay: qHTS cell viability counter screen (AID 2060913); also: nearly all actives have a fitted effect of over 40% in size
# Test parameters: CRE-bla HEK293T viability, CellTiter-Glo luminescence, 5 h; series mostly up to 92.4 µM
Inconclusive results are not listed. Calls of active or inactive are those of the source. The call rests on the fitted dose curve; in most records, active means well fitted cell-killing curve with a large enough effect in the repeat runs; inconclusive means weak or mixed curves, or effect the other way; inactive means flat fitted curve, though single readings scatter.
I would appreciate it if you answered using one of these outcomes: true (1) = active, false (0) = inactive

Take a look at these entries with their results.
Compound	Group
Cc1c(F)c(F)c(COC(=O)C2C(/C=C(\Cl)C(F)(F)F)C2(C)C)c(F)c1F (stereo unspecified)	false (0)
O=[N+]([O-])c1ccc([As](=O)(O)O)cc1	false (0)
C=CCN1C[C@H](C)N([C@H](c2ccc(C(=O)N(CC)CC)cc2)c2cccc(OC)c2)C[C@H]1C	false (0)

Input line: Could you kindly confirm the outcome this assay logged for CN(CCO)CCO ?
Output line: false (0)

* * *

# Assay comment: cAMP Responsive Elements (CRE) small molecule antagonists, cell-based qHTS assay: qHTS cell viability counter screen (AID 2060913); also: nearly all actives have a fitted effect of over 40% in size
# Test parameters: CRE-bla HEK293T viability, CellTiter-Glo luminescence, 5 h; series mostly up to 92.4 µM
Results filed as inconclusive are left out. The source made the active and inactive calls. Calls follow the shape of the dose curve; as a rule, active = well fitted cell-killing curve with a large enough effect in the repeat runs; inconclusive = weak or mixed curves, or effect the other way; inactive = flat fitted curve, though single readings scatter.
Assign a class; possible classes are active, inactive

Compound	Group
CCCCNC(=O)n1c(NC(=O)OC)nc2ccccc21	inactive
BrC(Br)C(Br)(Br)Br	inactive
CC(C)(Cl)Cl	inactive
CC1(C)CC(=O)CC(C)(C)N1[O]	inactive
CCCCS(=O)(=O)Cl	inactive

// next entry
Input line: I'd appreciate the recorded outcome for C[C@H]1C(=O)O[C@@H]2CCN3CC=C(COC(=O)[C@](C)(O)[C@]1(C)O)[C@H]23 from this test.
Output line: inactive
